# measured_on: T1, human HHLA2 expressed on transfected cells (300.19 mouse pre-B cells; CHO cells) (human, UniProt Q9UM44 23-414)
# T1 construct: also called B7-H7; B7H7
# T1 sequence: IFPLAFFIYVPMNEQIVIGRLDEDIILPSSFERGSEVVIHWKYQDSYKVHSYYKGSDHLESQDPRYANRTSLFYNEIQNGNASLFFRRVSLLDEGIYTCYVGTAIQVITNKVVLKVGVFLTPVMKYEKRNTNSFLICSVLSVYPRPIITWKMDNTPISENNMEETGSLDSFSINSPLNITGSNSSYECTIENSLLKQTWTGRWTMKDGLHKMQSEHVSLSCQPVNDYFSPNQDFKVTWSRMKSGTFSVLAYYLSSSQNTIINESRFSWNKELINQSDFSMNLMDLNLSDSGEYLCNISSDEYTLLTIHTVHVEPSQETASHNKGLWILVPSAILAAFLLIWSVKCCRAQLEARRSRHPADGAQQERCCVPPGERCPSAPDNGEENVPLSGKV
# experiment: flow cytometry, mAb titrated on HHLA2-transfected 300.19 pre-B cells, PE goat anti-mouse IgG
# Experimental: HHLA2 mAb cell binding and receptor blockade experiments were then performed. […] HHLA2 mAb binding to transfected 300.19 cells was detected with PE-labeled goat anti-mouse IgG (H+L). […] HHLA2-mIgG2a binding to TMIGD2 or KIR3DL3 transfected 293T cells was detected with a PE labeled Fab2 goat anti-mIgG2a antibody. […]
measurement_name: EC50 (mg/L)
Entry rule: numbers only, all in mg/L.

## Task Entry under review: anti-HHLA2 monoclonal antibody 2C4 (antibody, IgG1, V domains shown, also called 499.5.2C4.E6.6.8.1; MHC2562) VH: EVHLQQSGPELEKPGVSVKISCKASGFSFTDYNMNWVKQSSGKSLEWIGNIDPYYGRINYNQKFKGKATLSVDKSSSTAYMHLKSLTSEDSAVYYCATGAYTSGYSWFAYWGQGTLVTVSA VL: ENVLTQSPGIMAASLGEKVTMTCSASSSVSSSYLHWYQQRSGASPKPLIHRTSNLASGVPARFSGSGSGTSYSLTISSVEAEDDATYYCQQWSGYPFTFGSGTKLEIK . Reported EC50?
## Result 0.24

Attribution: patent US20210115144A1
